Target entity: Tyrosine-protein kinase CSK (Homo sapiens)
Assay info: Inhibition of recombinant full length human His-tagged CSK expressed in Escherichia coli expression system at 500 nM using Tyr 02 peptide as substrate incubated for 1 hr in presence of ATP at its Km concentration by Z'-LYTE assay relative to control
Assay endpoint: inhibition (%)

Illustrative cases are given below, each with its answer.
OCC[C@@H](Nc1ncnc2[nH]c(-c3ccccc3)cc12)c1ccccc1 : 19
CN(C)CCNCc1ccc(-c2cc3c(N[C@H](CO)c4ccccc4)ncnc3[nH]2)cc1F : 17

a: OC[C@@H](Nc1ncnc2[nH]c(-c3ccccc3)cc12)c1ccccc1
b: COc1ccccc1-c1cc2c(N[C@H](CO)c3ccccc3)ncnc2[nH]1
c: CCOc1ccccc1-c1cc2c(N[C@H](CO)c3ccccc3)ncnc2[nH]1
Order these by inhibition, descending, and give the full ranking. Would you mind listing the labels in the order requested?
c, a, b
(c: 17%, a: 9%, b: 6%)

----------
Target entity: Macrophage colony-stimulating factor 1 receptor (Homo sapiens) (UniProt P07333)
Sequence (P07333 whole entry, the tested form may be a part): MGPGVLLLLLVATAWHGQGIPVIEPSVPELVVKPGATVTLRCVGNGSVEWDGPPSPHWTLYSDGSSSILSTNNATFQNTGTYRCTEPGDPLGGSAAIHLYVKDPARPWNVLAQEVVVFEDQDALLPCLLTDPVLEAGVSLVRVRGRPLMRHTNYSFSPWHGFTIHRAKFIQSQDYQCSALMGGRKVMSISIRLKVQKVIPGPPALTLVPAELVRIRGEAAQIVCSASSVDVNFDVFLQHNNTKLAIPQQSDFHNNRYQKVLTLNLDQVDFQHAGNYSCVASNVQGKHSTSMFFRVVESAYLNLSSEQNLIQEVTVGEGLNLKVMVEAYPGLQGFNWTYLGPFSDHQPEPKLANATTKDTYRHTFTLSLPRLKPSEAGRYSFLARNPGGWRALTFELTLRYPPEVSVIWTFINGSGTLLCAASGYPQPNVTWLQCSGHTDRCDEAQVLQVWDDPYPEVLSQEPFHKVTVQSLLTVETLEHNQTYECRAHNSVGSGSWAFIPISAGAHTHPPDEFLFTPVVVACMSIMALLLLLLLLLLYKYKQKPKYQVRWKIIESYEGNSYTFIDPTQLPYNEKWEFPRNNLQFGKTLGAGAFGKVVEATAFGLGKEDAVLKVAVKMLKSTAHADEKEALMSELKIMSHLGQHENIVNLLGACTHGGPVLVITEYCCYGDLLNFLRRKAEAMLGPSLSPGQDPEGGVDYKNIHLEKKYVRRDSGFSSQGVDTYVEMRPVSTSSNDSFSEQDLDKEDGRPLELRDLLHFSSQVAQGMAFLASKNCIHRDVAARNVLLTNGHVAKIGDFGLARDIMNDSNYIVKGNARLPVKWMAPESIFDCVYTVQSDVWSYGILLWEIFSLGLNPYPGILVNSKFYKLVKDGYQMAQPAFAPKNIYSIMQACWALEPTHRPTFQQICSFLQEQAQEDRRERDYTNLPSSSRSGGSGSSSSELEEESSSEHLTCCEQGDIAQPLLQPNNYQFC
Assay info: Inhibition of recombinant human His-tagged CSF1R (538 to 910 residues) expressed in baculovirus expression system at 500 nM using Tyr 01 peptide as substrate incubated for 1 hr in presence of ATP at its Km concentration by Z'-LYTE assay relative to control
Assay endpoint: inhibition (%)

COc1ccccc1-c1cc2c(N[C@H](CO)c3ccccc3)ncnc2[nH]1 : 79
OC[C@@H](Nc1ncnc2[nH]c(-c3ccccc3)cc12)c1ccccc1 : 88
CN(C)CCNCc1ccc(-c2cc3c(N[C@H](CO)c4ccccc4)ncnc3[nH]2)cc1F : 86
OCC[C@@H](Nc1ncnc2[nH]c(-c3ccccc3)cc12)c1ccccc1 : 74
CCOc1ccccc1-c1cc2c(N[C@H](CO)c3ccccc3)ncnc2[nH]1 : 82

----------
Target entity: Tyrosine-protein kinase JAK2 (Homo sapiens)
Assay info: Inhibition of human recombinant GST tagged JAK2 catalytic domain expressed in baculovirus expression system at 500 nM using Tyr 06 as substrate incubated for 1 hr in presence of ATP at its Km concentration by Z'-LYTE assay relative to control
Assay endpoint: inhibition (%)

CCOc1ccccc1-c1cc2c(N[C@H](CO)c3ccccc3)ncnc2[nH]1 : 11

1: OCC[C@@H](Nc1ncnc2[nH]c(-c3ccccc3)cc12)c1ccccc1
2: CN(C)CCNCc1ccc(-c2cc3c(N[C@H](CO)c4ccccc4)ncnc3[nH]2)cc1F
3: OC[C@@H](Nc1ncnc2[nH]c(-c3ccccc3)cc12)c1ccccc1
4: COc1ccccc1-c1cc2c(N[C@H](CO)c3ccccc3)ncnc2[nH]1
Please order the records by their reported inhibition, lowest number first. Would you mind listing the labels in the order asked for?
1, 2, 4, 3

----------
Target entity: Focal adhesion kinase 1 (Homo sapiens) (UniProt Q05397)
Sequence (Q05397 2-1052 limits assumed): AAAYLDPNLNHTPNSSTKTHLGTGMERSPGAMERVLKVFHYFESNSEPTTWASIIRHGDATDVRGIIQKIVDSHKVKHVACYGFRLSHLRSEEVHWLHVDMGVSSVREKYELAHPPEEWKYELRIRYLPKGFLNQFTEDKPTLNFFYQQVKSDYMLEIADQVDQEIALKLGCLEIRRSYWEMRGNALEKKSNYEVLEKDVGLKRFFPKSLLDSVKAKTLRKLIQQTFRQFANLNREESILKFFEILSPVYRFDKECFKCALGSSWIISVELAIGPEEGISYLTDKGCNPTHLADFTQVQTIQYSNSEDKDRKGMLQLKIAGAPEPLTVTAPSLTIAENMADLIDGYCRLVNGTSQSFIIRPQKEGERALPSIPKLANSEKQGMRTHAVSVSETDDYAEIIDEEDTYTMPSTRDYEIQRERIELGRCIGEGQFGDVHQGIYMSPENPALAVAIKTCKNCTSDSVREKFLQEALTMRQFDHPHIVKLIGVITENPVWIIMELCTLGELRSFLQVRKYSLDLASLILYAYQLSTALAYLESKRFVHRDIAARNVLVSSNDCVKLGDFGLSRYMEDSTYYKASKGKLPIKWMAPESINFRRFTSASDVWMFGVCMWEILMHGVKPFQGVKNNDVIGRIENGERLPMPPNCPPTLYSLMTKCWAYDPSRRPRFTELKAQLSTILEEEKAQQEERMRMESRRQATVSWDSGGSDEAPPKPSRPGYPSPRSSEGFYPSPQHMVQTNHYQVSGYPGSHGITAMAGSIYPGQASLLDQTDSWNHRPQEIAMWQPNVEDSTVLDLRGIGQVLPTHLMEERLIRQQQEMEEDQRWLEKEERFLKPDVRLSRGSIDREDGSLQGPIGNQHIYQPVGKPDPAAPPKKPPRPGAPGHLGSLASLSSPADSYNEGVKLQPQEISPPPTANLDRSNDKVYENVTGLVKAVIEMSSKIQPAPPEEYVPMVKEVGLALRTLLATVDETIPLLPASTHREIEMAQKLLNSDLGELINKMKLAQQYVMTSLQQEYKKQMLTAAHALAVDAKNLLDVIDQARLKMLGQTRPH
Assay info: Inhibition of recombinant full length human GST-tagged PTK2 expressed in baculovirus expression system at 500 nM using Tyr 07 as substrate incubated for 1 hr in presence of ATP at its Km concentration by Z'-LYTE assay relative to control
Assay endpoint: inhibition (%)

OCC[C@@H](Nc1ncnc2[nH]c(-c3ccccc3)cc12)c1ccccc1 : 7

a: C#Cc1cccc(Nc2ncnc3cc(OCCOC)c(OCCOC)cc23)c1 [ERLOTINIB]
b: COc1ccccc1-c1cc2c(N[C@H](CO)c3ccccc3)ncnc2[nH]1
c: CCOc1ccccc1-c1cc2c(N[C@H](CO)c3ccccc3)ncnc2[nH]1
d: CN(C)CCNCc1ccc(-c2cc3c(N[C@H](CO)c4ccccc4)ncnc3[nH]2)cc1F
Number of compounds to sort: 4. Sort criterion: inhibition, ascending. Field: ranking. Enter the labels in the order requested.
a, b, d, c
(a: -3%, b: -2%, d: 1%, c: 9%)
